Each entry below carries its recorded composite z-score.
Biological target: Dihydroorotate dehydrogenase (quinone), mitochondrial (Plasmodium falciparum (isolate 3D7)) (UniProt Q08210)
Sequence (Q08210 whole entry, looked up): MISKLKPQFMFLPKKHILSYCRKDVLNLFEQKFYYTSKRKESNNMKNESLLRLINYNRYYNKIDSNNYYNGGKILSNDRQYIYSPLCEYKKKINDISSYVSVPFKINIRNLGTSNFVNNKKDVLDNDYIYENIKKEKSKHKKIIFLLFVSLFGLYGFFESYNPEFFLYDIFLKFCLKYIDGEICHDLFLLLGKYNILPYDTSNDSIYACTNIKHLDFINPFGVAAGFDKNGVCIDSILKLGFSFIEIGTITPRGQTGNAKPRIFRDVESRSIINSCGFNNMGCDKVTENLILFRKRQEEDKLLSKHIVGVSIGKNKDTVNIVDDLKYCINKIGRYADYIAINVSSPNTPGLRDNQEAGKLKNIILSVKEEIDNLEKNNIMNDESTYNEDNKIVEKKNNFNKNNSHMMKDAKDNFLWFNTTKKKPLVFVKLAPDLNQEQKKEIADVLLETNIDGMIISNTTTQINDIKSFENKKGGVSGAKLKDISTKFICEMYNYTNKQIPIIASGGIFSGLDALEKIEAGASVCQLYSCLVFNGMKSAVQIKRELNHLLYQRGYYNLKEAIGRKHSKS
Experiment: PfDHODH enzyme inhibitors, primary screen, biochemical, C-terminal His tag, absorbance 600 nm (AID 1175);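 also: recombinant parasite enzyme with a five histidine tag at its C terminus; test concentration not given here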
Settings: DCIP absorbance 600 nm, higher = more signal, called active from +8 up or from −8 down
Answer field: number only, no words.

Check out these entries, answers already filled in.
CCOC(=O)C1CCCCN1 (stereo unspecified) : -0.254
COC(=O)[C@H](Cc1ccccc1)N1CC(/C=C/C2CC2)=C[C@H]1[C@H](O)Cc1ccccc1 : -0.258
O=C1O[C@@H](c2ccccc2)[C@@H](c2ccccc2)N2[C@@H](c3ccc(OCCO)cc3)[C@]3(C(=O)Nc4ccccc43)[C@@H](C(=O)O)[C@H]12 : -1.09
Cc1ccc(S[C@]2(C(=O)NCC(F)(F)F)CC(=O)N(Cc3ccccc3)[C@@H]2c2ccc(CO)cc2I)cc1 : 0.343
CC(CO)N1C(=O)[C@@H]2[C@H]3C(=O)OCC=C[C@H]3OC23C=CCN(C(C)(C)C)C(=O)[C@@H]13 (stereo partly specified) : -1.08

Using known records, supply composite z-score for "[N-]=[N+]=NCc1ccccc1C[C@@]1(C(=O)N2CCCCC2)N=C(c2ccc(OCCCO)cc2)O[C@@H]1c1ccccc1"
1.53

Please report composite z-score for the following molecule: "CCOC(=O)C1=CC[C@@H](c2cccc(Cl)c2)N(S(=O)(=O)c2ccc(C)cc2)C1"
-1.54

Give the measured composite z-score for C=CCC(OC(C)=O)[C@@H]1[C@@H](N(Cc2cccc3ccccc23)C(=O)Cc2ccc(OC)cc2)c2cc(OCCCO)ccc2N1C(=O)c1ccc2ccccc2n1 (stereo partly specified)
-0.175

Retrieve composite z-score measured for [N-]=[N+]=NCc1ccccc1[C@@H]1OC(c2ccc(OCCCO)cc2)=N[C@]1(CCS(=O)(=O)c1ccccc1)C(=O)NCC(O)CO (stereo partly specified) and print it.
-0.716

Specify measured composite z-score for "CCCC[C@@H]1C[C@H]1[C@@H](NC(=O)c1ccccc1)c1ccc(C(F)(F)F)cc1" .
0.573

Tell us which composite z-score value is on record for "CC(C)N1C(=O)C[C@@](C(=O)NCCCN(C)C)(c2ccc([N+](=O)[O-])cc2)[C@H]1c1ccc(CO)cc1"
0.352

Report measured composite z-score; entry is "C#CCN([C@@H](Cc1ccc(O)cc1)C(=O)OC)[C@@H](/C=C/C1CC1)[C@H](O)Cc1ccccc1"
-0.228

Supply composite z-score value. Item: "CCOC(=O)C[C@H]1[C@H](OC(=O)c2ccccc2-c2ccccc2)[C@@H](NC(=O)c2ccc(-c3ccccc3)cc2)c2cc(OCCCO)ccc2N1C(=O)c1ccc2ccccc2n1"
-0.0558

Fill in reported composite z-score for this entry: O=C1C2C=CC(C(O)c3ccc(Br)cc3)N(Nc3ccccc3F)C2C(=O)N1c1ccccc1 (stereo unspecified)
0.356

Let me know recorded composite z-score for O=C1NC(=O)C2C1C=CC(C(O)c1c(F)cccc1Cl)N2Nc1ccc(Cl)cc1Cl (stereo unspecified) , thanks.
0.0047

Output measured composite z-score for this item: "CN(C)C(=O)[C@@]1(Cc2ccccc2CN=[N+]=[N-])N=C(c2ccc(OCCCO)cc2)O[C@H]1c1ccccc1CN=[N+]=[N-]"
2.07
